molecular target: SMARCA4-HiBiT (Homo sapiens); construct: SMARCA4-HiBiT knock-in Hela monoclonal cell (CS3023226); host or cells: HeLa monoclonal knock-in line (CRISPR HiBiT knock-in at the endogenous locus, heterozygous); experiment: SMARCA4 HiBiT degradation assay in HeLa cells; assay type: cell-based; settings: HeLa, 18 hours incubation, read-out: HeLa-HiBit-SM4 Dmax (%)
Sequence (P51532 whole entry): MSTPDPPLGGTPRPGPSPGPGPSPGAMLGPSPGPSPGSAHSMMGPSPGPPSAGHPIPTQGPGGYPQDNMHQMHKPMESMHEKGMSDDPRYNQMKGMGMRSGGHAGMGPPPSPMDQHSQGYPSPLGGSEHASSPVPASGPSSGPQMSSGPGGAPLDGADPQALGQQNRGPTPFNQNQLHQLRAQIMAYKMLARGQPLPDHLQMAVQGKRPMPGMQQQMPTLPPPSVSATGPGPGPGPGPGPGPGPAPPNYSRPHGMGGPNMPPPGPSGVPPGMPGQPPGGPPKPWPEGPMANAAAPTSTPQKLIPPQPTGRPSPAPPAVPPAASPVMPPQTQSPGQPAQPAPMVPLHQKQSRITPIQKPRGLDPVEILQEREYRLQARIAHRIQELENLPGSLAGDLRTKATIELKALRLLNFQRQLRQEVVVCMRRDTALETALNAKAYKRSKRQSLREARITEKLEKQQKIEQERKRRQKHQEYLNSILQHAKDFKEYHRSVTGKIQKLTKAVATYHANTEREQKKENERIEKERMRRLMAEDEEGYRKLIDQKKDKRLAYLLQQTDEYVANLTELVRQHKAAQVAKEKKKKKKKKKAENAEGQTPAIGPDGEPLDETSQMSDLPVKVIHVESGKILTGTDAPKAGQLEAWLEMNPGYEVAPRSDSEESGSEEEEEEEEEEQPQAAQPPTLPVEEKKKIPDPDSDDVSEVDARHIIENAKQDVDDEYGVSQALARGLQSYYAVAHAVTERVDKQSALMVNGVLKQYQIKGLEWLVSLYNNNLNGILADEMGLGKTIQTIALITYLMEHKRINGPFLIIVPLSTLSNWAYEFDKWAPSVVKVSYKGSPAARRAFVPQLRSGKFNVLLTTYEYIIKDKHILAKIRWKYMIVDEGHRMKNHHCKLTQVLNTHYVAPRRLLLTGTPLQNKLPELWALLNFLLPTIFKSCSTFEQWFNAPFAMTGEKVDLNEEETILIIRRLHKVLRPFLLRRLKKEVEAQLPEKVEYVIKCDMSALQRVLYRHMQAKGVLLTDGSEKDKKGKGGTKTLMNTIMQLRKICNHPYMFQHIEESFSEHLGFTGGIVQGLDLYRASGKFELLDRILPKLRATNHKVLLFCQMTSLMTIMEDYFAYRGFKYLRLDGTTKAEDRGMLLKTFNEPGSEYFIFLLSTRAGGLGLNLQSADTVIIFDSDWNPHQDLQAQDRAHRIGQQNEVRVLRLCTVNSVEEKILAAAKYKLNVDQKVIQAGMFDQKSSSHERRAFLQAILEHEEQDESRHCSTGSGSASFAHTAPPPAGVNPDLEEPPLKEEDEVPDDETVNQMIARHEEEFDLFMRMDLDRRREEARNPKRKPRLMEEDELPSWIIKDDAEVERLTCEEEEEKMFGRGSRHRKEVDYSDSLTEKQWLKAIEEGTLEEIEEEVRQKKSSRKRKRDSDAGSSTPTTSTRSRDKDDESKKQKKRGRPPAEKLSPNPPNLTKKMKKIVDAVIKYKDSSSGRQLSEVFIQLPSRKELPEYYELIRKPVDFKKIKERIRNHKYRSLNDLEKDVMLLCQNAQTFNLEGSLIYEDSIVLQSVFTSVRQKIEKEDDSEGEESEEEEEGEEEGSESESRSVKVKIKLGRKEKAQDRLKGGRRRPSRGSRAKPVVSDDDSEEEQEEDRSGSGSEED
MEASURED_QUANTITY: Dmax

Reference set, count: 3
O=C1CCC(N2C(=O)c3ccc(N4CCC(CCN5CCC(CN6CCN7c8cc(-c9ccccc9O)nnc8NC[C@H]7C6)CC5)CC4)cc3C2=O)C(=O)N1 (stereo partly drawn): 75 to 85%
CN(CC1CCN(CC2CCN(c3ccc4c(c3)C(=O)N(C3CCC(=O)NC3=O)C4=O)CC2)CC1)C1CCN2c3cc(-c4ccccc4O)nnc3NCC2C1 (stereo not drawn): 75 to 85%
O=C1CCC(N2C(=O)c3ccc(CN4CCC(CN5CCC(CN6CCN7c8cc(-c9ccccc9O)nnc8NC[C@H]7C6)CC5)CC4)cc3C2=O)C(=O)N1 (stereo partly drawn): 50 to 75%

Prompt: What value of Dmax has been recorded for this entry: O=C1CCC(N2Cc3ccc(N4CCC(CN5C[C@@H]6[C@H](C5)[C@H]6C(=O)N5CCN6c7cc(-c8ccccc8O)nnc7NC[C@H]6C5)CC4)cc3C2=O)C(=O)N1 (stereo partly drawn)
Response: ≤ 50%

* * *

This listing pairs molecules with measured Dmax.
molecular target: SMARCA2-HiBiT (Homo sapiens, UniProt P51531); construct: SMARCA2-HiBiT knock-in Hela monoclonal cell (CS302366); host or cells: HeLa monoclonal knock-in line (CRISPR HiBiT knock-in at the endogenous locus, heterozygous); test: SMARCA2 HiBiT degradation assay in HeLa cells; format: cell-based; conditions: HeLa, 18 hours incubation, read-out: HeLa-HiBit-SM2 Dmax (%)
Sequence (P51531 whole entry): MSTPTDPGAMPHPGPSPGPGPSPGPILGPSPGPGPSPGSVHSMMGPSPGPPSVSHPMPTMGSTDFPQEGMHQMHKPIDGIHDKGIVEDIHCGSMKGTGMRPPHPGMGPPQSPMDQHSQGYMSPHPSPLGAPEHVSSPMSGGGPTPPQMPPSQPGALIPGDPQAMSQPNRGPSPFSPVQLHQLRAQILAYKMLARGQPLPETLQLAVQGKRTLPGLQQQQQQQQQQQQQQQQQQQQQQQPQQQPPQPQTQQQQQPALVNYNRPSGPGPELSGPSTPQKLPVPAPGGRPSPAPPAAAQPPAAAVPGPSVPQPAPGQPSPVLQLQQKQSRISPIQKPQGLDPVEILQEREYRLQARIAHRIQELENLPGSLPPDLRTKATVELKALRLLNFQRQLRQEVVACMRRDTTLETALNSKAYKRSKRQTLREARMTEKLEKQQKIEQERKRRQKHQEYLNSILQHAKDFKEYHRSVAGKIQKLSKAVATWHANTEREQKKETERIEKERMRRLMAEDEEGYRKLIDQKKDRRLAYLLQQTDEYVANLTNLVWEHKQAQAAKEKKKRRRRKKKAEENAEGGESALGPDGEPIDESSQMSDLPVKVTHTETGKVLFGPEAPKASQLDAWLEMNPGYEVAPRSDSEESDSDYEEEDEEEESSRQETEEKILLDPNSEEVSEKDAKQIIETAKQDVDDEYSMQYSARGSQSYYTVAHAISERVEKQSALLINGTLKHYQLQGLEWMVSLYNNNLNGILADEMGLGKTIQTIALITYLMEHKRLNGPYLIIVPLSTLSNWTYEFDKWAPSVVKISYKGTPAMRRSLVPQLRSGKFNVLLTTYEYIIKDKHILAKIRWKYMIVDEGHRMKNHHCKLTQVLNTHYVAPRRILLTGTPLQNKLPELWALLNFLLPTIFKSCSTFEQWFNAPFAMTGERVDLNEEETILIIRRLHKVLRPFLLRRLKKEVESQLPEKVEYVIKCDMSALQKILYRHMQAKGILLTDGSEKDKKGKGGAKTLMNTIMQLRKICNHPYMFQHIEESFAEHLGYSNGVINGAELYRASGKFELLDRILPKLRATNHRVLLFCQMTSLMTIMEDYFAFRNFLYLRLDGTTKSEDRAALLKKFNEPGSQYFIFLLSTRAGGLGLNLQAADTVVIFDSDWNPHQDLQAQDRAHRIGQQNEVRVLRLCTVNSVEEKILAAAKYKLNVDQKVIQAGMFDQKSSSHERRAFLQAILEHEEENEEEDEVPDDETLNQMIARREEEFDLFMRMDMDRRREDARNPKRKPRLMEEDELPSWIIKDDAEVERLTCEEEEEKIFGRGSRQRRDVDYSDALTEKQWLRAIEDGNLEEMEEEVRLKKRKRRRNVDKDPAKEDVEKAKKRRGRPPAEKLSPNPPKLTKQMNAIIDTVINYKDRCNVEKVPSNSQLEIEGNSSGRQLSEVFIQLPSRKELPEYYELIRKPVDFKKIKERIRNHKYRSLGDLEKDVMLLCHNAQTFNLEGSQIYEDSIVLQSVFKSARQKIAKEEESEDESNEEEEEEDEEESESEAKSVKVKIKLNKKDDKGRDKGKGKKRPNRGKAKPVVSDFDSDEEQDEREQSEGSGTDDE

Reference set, count: 5
O=C1CCC(N2C(=O)c3ccc(Nc4ccc(N5CCC(N6CCN7c8cc(-c9ccccc9O)nnc8NC[C@H]7C6)CC5)cc4)cc3C2=O)C(=O)N1 (stereo partly drawn) [Example 240]: 75 to 85%
CC1(CN2CCN3c4cc(-c5ccccc5O)nnc4NC[C@H]3C2)CCN(CC2CCN(c3ccc4c(c3)C(=O)N(C3CCC(=O)NC3=O)C4=O)CC2)CC1 (stereo partly drawn) [Example 37]: > 85%
O=C1CCC(N2Cc3cc(C4CCN(CC5CCN(CCN6CCN7c8cc(-c9ccccc9O)nnc8NC[C@H]7C6)CC5)CC4)ccc3C2=O)C(=O)N1 (stereo partly drawn) [Example 213]: > 85%
O=C1CCC(N2Cc3ccc(N4CCC(CN5CCN(C(=O)N6CCN7c8cc(-c9ccccc9O)nnc8NC[C@H]7C6)C(C(F)(F)F)C5)CC4)cc3C2=O)C(=O)N1 (stereo partly drawn) [Example 100]: 75 to 85%
O=C1CCC(N2Cc3ccc(N4CCN(CCCN5CCC(CN6CCN7c8cc(-c9ccccc9O)nnc8NC[C@H]7C6)CC5)CC4)cc3C2=O)C(=O)N1 (stereo partly drawn) [Example 121]: > 85%

Prompt: What value of Dmax has been recorded for this entry: O=C1CCC(N2Cc3ccc(N4CCC(CN5CC6(C5)CN(C(=O)N5CCN7c8cc(-c9ccccc9O)nnc8NC[C@H]7C5)C6)CC4)cc3C2=O)C(=O)N1 (stereo partly drawn) [Example 101]
Response: 75 to 85%
